Cited source for all entries: patent US20190269784A1

So I've got a bunch of molecules here, and I need their fold reduction of PLK1 PBD binding relative to parent compound values.
target: PLK1 PBD (Homo sapiens, UniProt P53350); assay: Fluorescence polarization competitive binding assay, PLK1 PBD
Sequence (P53350 367-603 limits assumed): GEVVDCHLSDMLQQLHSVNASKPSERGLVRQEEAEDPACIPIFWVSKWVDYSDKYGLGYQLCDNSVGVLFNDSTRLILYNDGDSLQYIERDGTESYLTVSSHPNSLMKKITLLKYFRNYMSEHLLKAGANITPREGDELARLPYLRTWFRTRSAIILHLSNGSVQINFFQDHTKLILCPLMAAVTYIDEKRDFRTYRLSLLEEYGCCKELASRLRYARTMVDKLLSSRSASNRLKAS
Square brackets hold non-standard residues; d marks the D form. Peptide text beside a SMILES is read from it. * marks the point of attachment. Benzoyl(4-octyl) = CCCCCCCCc1ccc(C(=O)*)cc1; pT = C[C@@H](OP(=O)(O)O)[C@H](N)C(=O)O; X2 = O=C(c1ccc(OCc2ccc(F)cc2)cc1)*

Dear colleague, could you send me fold reduction of PLK1 PBD binding relative to parent compound for each of the items below? Thanks.
1. CCCCCCCCc1ccc(C(=O)N[C@@H](CO)C(=O)N[C@H](C(=O)N[C@@H](C)C(=O)O)[C@@H](C)OP(=O)(O)O)cc1
2. CCCCCCCCc1ccc(C(=O)N[C@@H](CO)C(=O)N[C@H](C(=O)N2CCC[C@H]2C(=O)N[C@@H](CC(C)C)C(=O)O)[C@@H](C)OP(=O)(O)O)cc1 [Compound 16] ({Benzoyl(4-octyl)}-S[pT]PL-OH; C-terminus assumed)
3. CC(C)C[C@H](NC(=O)CNC(=O)[C@H](CC(N)=O)NC(=O)[C@@H]1CCCN1C(=O)[C@@H](NC(=O)[C@H](CO)NC(=O)c1ccc(OCc2ccc(F)cc2)cc1)[C@@H](C)OP(=O)(O)O)C(=O)O [Compound 5] (X2-S[pT]PNGL-OH; C-terminus assumed)
4. CC(C)C[C@H](NC(=O)CNC(=O)[C@H](CC(N)=O)NC(=O)[C@@H]1CCCN1C(=O)[C@@H](NC(=O)[C@H](CO)NC(=O)[C@@H](NC(=O)[C@H](C)NC(=O)[C@H](CC(C)C)NC(=O)[C@@H]1CCCN1C(=O)CN)[C@@H](C)O)[C@@H](C)OP(=O)(O)O)C(=O)O [SEQ ID NO: 8, GPLATS[pT]PNGL] (H-GPLATS[pT]PNGL-OH; N-terminus and C-terminus assumed)

RESULT:
1: ~40 fold; 2: 3-4 fold; 3: ~24 fold; 4: 2 fold
